Target Of Assay: T1, Recombinant Human DLL4 (R&D Systems Cat#1506-D4/CF) (human, UniProt Q9NR61 27-524)
T1 construct: Bought recombinant protein; also called delta-like protein 4; rHuman DLL4
Protocol: ECL multispot (MSD) binding assay, DLL4 spotted on plate, purified Fab in solution; Fab concentration not given
Measure Name: ECL signal
Just the number.

For orientation, consider the following solved cases.
Fab VH1-46_IGHD6-6*01_IGHJ1*01 S102A/S103P/S104F/H111F (APFF) & L6_IGKJ1*01 S30G (Fab, V domains shown, Fab expressed in E. coli: VH joined to CH1 (Plasmid A, His6 and Flag tags), VL joined to kappa CL (Plasmid C); also called APFF S30G) VH: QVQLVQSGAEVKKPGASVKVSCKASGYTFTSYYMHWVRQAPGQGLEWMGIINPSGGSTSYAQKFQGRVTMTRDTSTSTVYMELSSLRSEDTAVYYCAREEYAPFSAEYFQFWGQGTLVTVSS VL: EIVLTQSPATLSLSPGERATLSCRASQSVGSYLAWYQQKPGQAPRLLIYDASNRATGIPARFSGSGSGTDFTLTISSLEPEDFAVYYCQQRSNWPPWTFGQGTKVEIKR :: 180000
Fab VH1-46_IGHD6-6*01_IGHJ1*01 S102A/S103P/S104F/H111F (APFF) & L6_IGKJ1*01 S30D (Fab, V domains shown, Fab expressed in E. coli: VH joined to CH1 (Plasmid A, His6 and Flag tags), VL joined to kappa CL (Plasmid C); also called APFF S30D) VH: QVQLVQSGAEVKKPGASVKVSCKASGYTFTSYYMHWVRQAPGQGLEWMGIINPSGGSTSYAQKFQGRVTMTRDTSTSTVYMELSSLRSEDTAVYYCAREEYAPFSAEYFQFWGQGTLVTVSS VL: EIVLTQSPATLSLSPGERATLSCRASQSVDSYLAWYQQKPGQAPRLLIYDASNRATGIPARFSGSGSGTDFTLTISSLEPEDFAVYYCQQRSNWPPWTFGQGTKVEIKR :: 225000

Please examine the following record next.
input: Give the reported ECL signal for this binder. Fab VH1-46_IGHD6-6*01_IGHJ1*01 S102A/S103P/S104F/H111F (APFF) & L6_IGKJ1*01 S30W (Fab, V domains shown, Fab expressed in E. coli: VH joined to CH1 (Plasmid A, His6 and Flag tags), VL joined to kappa CL (Plasmid C); also called APFF S30W) VH: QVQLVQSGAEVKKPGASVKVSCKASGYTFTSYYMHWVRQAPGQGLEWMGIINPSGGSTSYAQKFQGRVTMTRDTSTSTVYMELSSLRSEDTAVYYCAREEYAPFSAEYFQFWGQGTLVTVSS VL: EIVLTQSPATLSLSPGERATLSCRASQSVWSYLAWYQQKPGQAPRLLIYDASNRATGIPARFSGSGSGTDFTLTISSLEPEDFAVYYCQQRSNWPPWTFGQGTKVEIKR
output: 191000
